System: Porcine Atria myofibrils
Experiment: Myofibril ATPase assay (PK/LDH NADH-coupled), atria myofibrils
Assay type: biochemical
Details: Table 8
Give 1 when the value for Porcine Atria IC25 is at least 30000 nM. Give 0 when it is less.

compound="C[C@H](NC(=O)CN1Cc2cc(F)c(F)cc2NC1=O)c1ncc(C#N)cc1F [Compound B358]" answer_label=0
compound="C[C@@H](NC(=O)CN1Cc2c(ccc(F)c2F)NC1=O)c1ncc(F)cc1F [Compound B190]" answer_label=0
compound="C[C@H]1c2ccccc2NC(=O)N1CC(=O)N[C@@H](CO)c1ccc(F)cc1F [Compound B201]" answer_label=0
compound="C[C@@H](NC(=O)CN1Cc2cc3c(cc2NC1=O)OCCO3)c1ncc(C#N)cc1F [Compound B276]" answer_label=1
compound="O=C(CN1Cc2c(ccc(F)c2F)NC1=O)N[C@@H]1CS(=O)(=O)c2cc(F)cc(F)c21 [Compound B18]" answer_label=0
compound="O=C(CN1Cc2c(ccc(F)c2F)NC1=O)N[C@@H]1COCc2cc(F)cc(F)c21 [Compound B62]" answer_label=0
compound="C[C@@H](C(=O)N[C@H](CO)c1ncc(F)cc1F)N1Cc2c(Cl)cccc2NC1=O [Compound B167]" answer_label=1
compound="C[C@H](C(=O)N[C@@H](CO)c1ncc(F)cc1F)N1Cc2c(Cl)cccc2NC1=O [Compound B170]" answer_label=0
compound="N#Cc1cc(F)c2c(c1)OC[C@H]2NC(=O)CN1C(=O)Nc2cccc(C#N)c2C12CC2 [Compound B303]" answer_label=0
compound="Cc1cc(C#N)cnc1[C@H](C)NC(=O)CN1Cc2c(ccc(F)c2F)NC1=O [Compound B9]" answer_label=0
compound="CC1c2ccccc2NC(=O)N1CC(=O)N[C@@H](CO)c1ccc(F)cc1F (single isomer, unassigned) [Compound B200]" answer_label=0
compound="Cc1cccnc1[C@H](C)NC(=O)CN1Cc2cc(F)ccc2NC1=O [Compound B193]" answer_label=0
compound="CC(NC(=O)CN1Cc2c(ccc(F)c2F)NC1=O)c1ncc(C#N)cc1F (stereo not shown) [Compound B77]" answer_label=0
compound="C[C@@H](NC(=O)CN1Cc2c(ccc(F)c2F)NC1=O)c1ncc(C2COC2)cn1 [Compound B282]" answer_label=1
compound="C[C@H](NC(=O)CN1Cc2c(ccc(F)c2F)NC1=O)c1cc2c(cn1)OCCN2 [Compound B365]" answer_label=1
compound="C[C@@H](NC(=O)CN1C(=O)Nc2ccc(F)cc2C12CC2)c1ccc(C#N)cn1 [Compound B137]" answer_label=0

* * *

System: Porcine Atria myofibrils
Assay: Myofibril ATPase assay (PK/LDH NADH-coupled), atria myofibrils
Type: biochemical
Conditions: Table 8
Item-by-item account of Porcine Atria IC25
METRIC: Porcine Atria IC25 (nM)

molecule="C[C@@H](NC(=O)CN1C(=O)Nc2ccc(C#N)cc2C12CC2)c1ncc(F)cc1F [Compound B149]" test_result=73550
molecule="C[C@H](NC(=O)CN1C(=O)Nc2ccc(F)cc2[C@H]1C(F)(F)F)c1ccc(F)cc1F [Compound B235]" test_result=1150
molecule="C[C@H](NC(=O)[C@@H](C)N1Cc2c(Br)cccc2NC1=O)c1ccc(F)cc1F [Compound B228]" test_result=320
molecule="N#Cc1cc(F)c2c(c1)OC[C@@H]2NC(=O)CN1Cc2c(ccc(F)c2C#N)NC1=O [Compound B118]" test_result=70
molecule="C[C@@H](NC(=O)CN1Cc2cc(F)c(F)cc2NC1=O)c1ncc(C#N)cc1F [Compound B357]" test_result=1560
molecule="Cc1ccc2c(c1F)CN(CC(=O)N[C@H](C)c1ccc(C#N)cc1F)C(=O)N2 [Compound B30]" test_result=70
molecule="C[C@H](NC(=O)CN1Cc2c(ccc(F)c2F)NC1=O)c1ncc(-n2ncnn2)cc1F [Compound B265]" test_result=1880
molecule="N#Cc1cnc2c(c1)OC[C@H]2NC(=O)CN1C(=O)Nc2ccc(F)c(F)c2C12CC2 [Compound B321]" test_result=170
